TEST PROTOCOL: Cytotoxicity against human MT2 cells assessed as concentration required to 50% inhibition of cell growth relative to control
Type: cell-based
STUDY CONDITIONS: read-out: Activity
RECORDED ENDPOINT: CC50 (µM)
Answers are plain numbers, in µM.

Use the examples below as a reference point.
# SMILES DATA, RECORDED ENDPOINT, RESULT
rows = [
    ("COC(=O)/C(O)=C/C(=O)c1ccc(NC(=O)/C=C/c2ccc(O)c(O)c2)cc1", "CC50", 39.5),
    ("O=C(O[C@@H](C(=O)O)[C@@H](O)C(=O)O)c1cccn1Cc1ccc(F)cc1", "CC50", 792),
    ("COC(=O)/C(O)=C/C(=O)c1ccc(O)c(O)c1", "CC50", 182),
]

Lab note: next compound to report on.
# compound "O=C(O)/C(O)=C/C(=O)c1ccc(O)c(O)c1" ; its CC50 = 178

====

TEST PROTOCOL: Inhibition of HIV NL4-3 recombinant histidine-tagged integrase strand transfer activity expressed in Escherichia coli BL21 (DE3)
Design: species or system Human immunodeficiency virus
pIC50: −log10 of the molar value.
pIC50 of 6 or higher: T. Under 6: F.

Reference set, count: 6
# COMPOUND, QUALITATIVE LABEL
data = [
    ("COC(=O)/C(O)=C/C(=O)c1ccc(O)c(O)c1", "F"),
    ("O=C(/C=C/c1ccc(O)c(O)c1)OCC(OC(=O)/C=C/c1ccc(O)c(O)c1)c1nnn[nH]1 (racemic)", "T"),
    ("O=C(O[C@@H](C(=O)O)[C@@H](O)C(=O)O)c1cccn1Cc1ccc(F)cc1", "F"),
    ("NC(=O)[C@H](OC(=O)/C=C/c1ccc(O)c(O)c1)[C@@H](OC(=O)/C=C/c1ccc(O)c(O)c1)c1nnn[nH]1", "T"),
    ("O=C(/C=C/c1ccc(O)c(O)c1)Nc1ccccc1C(=O)/C=C(\\O)C(=O)O", "F"),
    ("O=C(/C=C/c1ccc(O)c(O)c1)Nc1cc(NC(=O)/C=C/c2ccc(O)c(O)c2)cc(C(=O)/C=C(\\O)C(=O)O)c1", "T"),
]

**Q:** Is the recorded value of pIC50 equal to or greater than 6 for this compound? "O=C(/C=C/c1ccc(O)c(O)c1)Nc1ccc(C(=O)/C=C(\O)C(=O)O)cc1"
**A:** T

**Q:** Is the recorded value of pIC50 equal to or greater than 6 for this compound? "O=C(/C=C/c1ccc(O)c(O)c1)Nc1cccc(C(=O)/C=C(\O)C(=O)O)c1"
**A:** T

**Q:** Is the recorded value of pIC50 equal to or greater than 6 for this compound? "COC(=O)/C(O)=C/C(=O)c1cc(NC(=O)/C=C/c2ccc(O)c(O)c2)cc(NC(=O)/C=C/c2ccc(O)c(O)c2)c1"
**A:** T

**Q:** Is the recorded value of pIC50 equal to or greater than 6 for this compound? "O=C(/C=C/c1ccc(O)c(O)c1)O[C@@H](c1nnn[nH]1)[C@@H](OC(=O)/C=C/c1ccc(O)c(O)c1)c1nnn[nH]1"
**A:** T

====

TEST PROTOCOL: Cytotoxicity against human MT2 cells assessed as concentration required to 50% inhibition of cell growth relative to control
Type: cell-based
STUDY CONDITIONS: read-out: Activity
Task for the reader: assign each of the following compounds its reported CC50.
One number for each entry, in µM.

# COMPOUND, CC50, µM
measured = [
    ("O=C(/C=C/c1ccc(O)c(O)c1)O[C@@H](C(=O)O)[C@@H](OC(=O)c1cccn1Cc1ccc(F)cc1)C(=O)O", 399),
    ("NC(=O)[C@H](OC(=O)/C=C/c1ccc(O)c(O)c1)[C@@H](OC(=O)/C=C/c1ccc(O)c(O)c1)c1nnn[nH]1", 31.9),
    ("O=C(/C=C/c1cc(O)c(O)c(O)c1)OC(c1nnn[nH]1)C(OC(=O)/C=C/c1cc(O)c(O)c(O)c1)c1nnn[nH]1 (single isomer, unassigned)", 48.9),
]

Lab note: next compound to report on.
# compound "O=C(/C=C/c1ccc(O)c(O)c1)Nc1ccccc1C(=O)/C=C(\O)C(=O)O" ; its CC50 = 53

====

System: MT2
TEST PROTOCOL: Cytotoxicity against human MT2 cells assessed as concentration required to 5% inhibition of cell growth relative to control
Type: cell-based
Task for the reader: assign each of the following compounds its reported log10 of Activity.
The common logarithm of Activity in µM is what is listed.

Use the examples below as a reference point.
# COMPOUND, log10 of Activity
records = [
    ("O=C(/C=C/c1ccc(O)c(O)c1)O[C@@H](c1nnn[nH]1)[C@@H](OC(=O)/C=C/c1ccc(O)c(O)c1)c1nnn[nH]1", 1.45),
    ("O=C(/C=C/c1ccc(O)c(O)c1)Nc1ccc(C(=O)/C=C(\\O)C(=O)O)cc1", 1.42),
    ("O=C(/C=C/c1cc(O)c(O)c(O)c1)OC(c1nnn[nH]1)C(OC(=O)/C=C/c1cc(O)c(O)c(O)c1)c1nnn[nH]1 (single isomer, unassigned)", 1.05),
    ("O=C(/C=C/c1ccc(O)c(O)c1)Nc1ccccc1C(=O)/C=C(\\O)C(=O)O", 1.37),
    ("COC(=O)/C(O)=C/C(=O)c1ccc(NC(=O)/C=C/c2ccc(O)c(O)c2)cc1", 1.09),
]

// for each compound in input: emit log10 of Activity
1. O=C(/C=C/c1ccc(O)c(O)c1)O[C@@H](C(=O)O)[C@@H](O)C(=O)O
2. O=C(/C=C/c1ccc(O)c(O)c1)O[C@@H](C(=O)O)[C@@H](OC(=O)/C=C/c1ccc(O)c(O)c1)C(=O)O
3. O=C(O)/C(O)=C/C(=O)c1ccc(O)c(O)c1
4. O=C(/C=C(\O)C(=O)O)/C=C/c1ccc(O)c(O)c1
5. O=C(/C=C/c1ccc(O)c(O)c1)Nc1cccc(C(=O)/C=C(\O)C(=O)O)c1
6. O=C(O[C@@H](C(=O)O)[C@@H](OC(=O)c1cccn1Cc1ccc(F)cc1)C(=O)O)c1cccn1Cc1ccc(F)cc1

**A:**
1. 1.70
2. 1.61
3. 1.83
4. 1.51
5. 1.31
6. 1.46

// for each compound in input: emit log10 of Activity
1. NC(=O)[C@H](OC(=O)/C=C/c1ccc(O)c(O)c1)[C@@H](OC(=O)/C=C/c1ccc(O)c(O)c1)c1nnn[nH]1
2. O=C(O[C@@H](C(=O)O)[C@@H](O)C(=O)O)c1cccn1Cc1ccc(F)cc1
3. COC(=O)/C(O)=C/C(=O)c1ccc(O)c(O)c1
4. O=C(/C=C/c1ccc(O)c(O)c1)O[C@@H](C(=O)O)[C@@H](OC(=O)c1cccn1Cc1ccc(F)cc1)C(=O)O

**A:**
0.76
1.78
1.56
1.62

====

TEST PROTOCOL: Cytotoxicity against human MT2 cells assessed as concentration required to 50% inhibition of cell growth relative to control
Assay type: cell-based
STUDY CONDITIONS: read-out: Activity
The label is 1 for CC50 below 100 µM and -1 for CC50 equal to or exceeding 100 µM.

Reference set, count: 6
# MOLECULE, QUALITATIVE LABEL
records = [
    ("O=C(/C=C/c1ccc(O)c(O)c1)Nc1cccc(C(=O)/C=C(\\O)C(=O)O)c1", 1),
    ("O=C(/C=C/c1ccc(O)c(O)c1)O[C@@H](C(=O)O)[C@@H](O)C(=O)O [CAFTARIC ACID]", -1),
    ("O=C(/C=C/c1ccc(O)c(O)c1)Nc1ccc(C(=O)/C=C(\\O)C(=O)O)cc1", 1),
    ("O=C(/C=C(\\O)C(=O)O)/C=C/c1ccc(O)c(O)c1", 1),
    ("O=C(/C=C/c1ccc(O)c(O)c1)O[C@@H](c1nnn[nH]1)[C@@H](OC(=O)/C=C/c1ccc(O)c(O)c1)c1nnn[nH]1", -1),
    ("O=C(/C=C/c1ccc(O)c(O)c1)O[C@@H](C(=O)O)[C@@H](OC(=O)/C=C/c1ccc(O)c(O)c1)C(=O)O [CICHORIC ACID]", -1),
]

**Q:** Just wondering, is CC50 of "O=C(O[C@@H](C(=O)O)[C@@H](OC(=O)c1cccn1Cc1ccc(F)cc1)C(=O)O)c1cccn1Cc1ccc(F)cc1" below 100 µM?
**A:** -1

====

Task for the reader: assign each of the following compounds its reported selectivity ratio.
TEST PROTOCOL: Therapeutic index, ratio of CT50 for human MT2 cells to EC50 for HIV LAI
Type: cell-based
STUDY CONDITIONS: read-out: TI

Use the examples below as a reference point.
# COMPOUND, RESULT
rows = [
    ("NC(=O)[C@H](OC(=O)/C=C/c1ccc(O)c(O)c1)[C@@H](OC(=O)/C=C/c1ccc(O)c(O)c1)c1nnn[nH]1", "> 350"),
    ("O=C(/C=C/c1ccc(O)c(O)c1)O[C@@H](c1nnn[nH]1)[C@@H](OC(=O)/C=C/c1ccc(O)c(O)c1)c1nnn[nH]1", "> 350"),
]

Lab note: next compound to report on.
# compound O=C(/C=C/c1cc(O)c(O)c(O)c1)OC(c1nnn[nH]1)C(OC(=O)/C=C/c1cc(O)c(O)c(O)c1)c1nnn[nH]1 (single isomer, unassigned) ; its selectivity ratio = > 350
